System: Micrococcus luteus DSM1790
test-summary: MIC microdilution assay, M. luteus DSM 1790
Type: cell-based
settings: DSM1790, MHBII medium, 37° C., 20 h, test range 64 to 0.008 μg/mL, read-out: MIC M. luteus DSM 1790
In this section, each of the molecules is paired with its reported MIC.
measurement-type: MIC (µg/mL)

{"columns": ["molecule", "measurement-unit", "reported-value"],
 "data": [
  ["COc1c(NC(=O)c2ccc(NC(=O)c3ccc(NC(=O)[C@H](Cc4c[nH]nn4)NC(=O)c4ccc(NC(=O)c5ccc6nc(C)ccc6c5)cc4)cn3)c(OC)c2O)ccc(C(=O)O)c1O", "µg/mL", 0.063],
  ["COc1c(NC(=O)c2ccc(NC(=O)c3ccc(NC(=O)C(Cc4c[nH]nn4)NC(=O)c4ccc(NCc5ccc6ncccc6c5)cc4)cn3)c(OC)c2O)ccc(C(=O)O)c1O (centres unmarked)", "µg/mL", 0.125],
  ["COc1c(NC(=O)c2ccc(NC(=O)c3ccc(NC(=O)C(Cc4c[nH]nn4)NC(=O)c4ccc(NC(=O)c5ccc6nc[nH]c6c5)cc4)cn3)c(OC)c2O)ccc(C(=O)O)c1O (centres unmarked)", "µg/mL", 2],
  ["COc1c(NC(=O)c2ccc(NC(=O)c3ccc(NC(=O)C(Cc4c[nH]nn4)NC(=O)c4ccc(NC(=O)c5ccc6nn[nH]c6c5)cc4)cn3)c(OC)c2O)ccc(C(=O)O)c1O (centres unmarked)", "µg/mL", 1],
  ["COc1c(NC(=O)c2ccc(NC(=O)c3ccc(NC(=O)C(Cc4c[nH]nn4)NC(=O)c4ccc(NC(=O)/C(C)=C/c5ccc(O)cc5)cc4)cn3)c(OC)c2O)ccc(C(=O)O)c1O (centres unmarked) [3^RD GEN Alb i, reference compound]", "µg/mL", 0.031]
]}

----------
Test system: Bacillus subtilis DSM10
test-summary: MIC microdilution assay, B. subtilis DSM 10
Type: cell-based
settings: DSM10, MHBII medium, 37° C., 20 h, test range 64 to 0.008 μg/mL, read-out: MIC B. subtilis DSM10
Method: The tests were performed using the micro dilution method. […] Previously the dry antibiotic compounds were dissolved in DMSO (100%) with a concentration of 2560 μg/mL and the resulting stock solutions were further diluted in DMSO (100%). […] Both microdilution trays and agar plates were incubated at 37° C. for 20 h and subsequently analyzed visually.

{"columns": ["compound", "MIC, µg/mL"],
 "data": [
  ["COc1c(NC(=O)c2ccc(NC(=O)c3ccc(NC(=O)[C@H](Cc4c[nH]nn4)NC(=O)c4ccc(NC(=O)c5ccc6nc(C)ccc6c5)cc4)cn3)c(OC)c2O)ccc(C(=O)O)c1O [Compound 1]", 0.063],
  ["COc1c(NC(=O)c2ccc(NC(=O)c3ccc(NC(=O)C(Cc4c[nH]nn4)NC(=O)c4ccc(NC(=O)c5ccc6nc[nH]c6c5)cc4)cn3)c(OC)c2O)ccc(C(=O)O)c1O (centres unmarked) [Compound 9]", 2],
  ["COc1c(NC(=O)c2ccc(NC(=O)c3ccc(NC(=O)C(Cc4c[nH]nn4)NC(=O)c4ccc(NC(=O)/C(C)=C/c5ccc(O)cc5)cc4)cn3)c(OC)c2O)ccc(C(=O)O)c1O (centres unmarked) [3^RD GEN Alb i, reference compound]", 0.031]
]}
